- SUBJECT OF TEST: PEG-3 (UniProt Q6IN02)
- Sequence (Q6IN02 whole entry, looked up): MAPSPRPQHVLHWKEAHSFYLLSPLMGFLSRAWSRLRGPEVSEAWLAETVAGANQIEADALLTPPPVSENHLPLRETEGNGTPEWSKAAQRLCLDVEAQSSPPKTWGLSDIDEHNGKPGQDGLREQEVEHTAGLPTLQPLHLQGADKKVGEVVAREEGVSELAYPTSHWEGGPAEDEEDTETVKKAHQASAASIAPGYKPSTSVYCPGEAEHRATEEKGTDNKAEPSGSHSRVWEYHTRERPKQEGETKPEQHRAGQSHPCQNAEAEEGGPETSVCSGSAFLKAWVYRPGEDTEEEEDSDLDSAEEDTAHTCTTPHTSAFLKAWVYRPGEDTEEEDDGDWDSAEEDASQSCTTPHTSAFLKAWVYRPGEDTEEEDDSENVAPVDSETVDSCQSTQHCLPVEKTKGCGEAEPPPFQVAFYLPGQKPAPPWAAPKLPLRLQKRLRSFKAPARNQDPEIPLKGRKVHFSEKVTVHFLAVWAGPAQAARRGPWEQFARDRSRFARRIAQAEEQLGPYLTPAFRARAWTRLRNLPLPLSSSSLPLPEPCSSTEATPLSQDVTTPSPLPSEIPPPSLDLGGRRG
- TEST DETAILS: Peg3 promoter luciferase inhibitors, potency, dose response, cell-based, HeLa, CREF/GAPDH counter-screen panel (AID 624167)
- RUN CONDITIONS: HeLa PEG-Prom luciferase reporter, overnight, CREF/GAPDH counter-screens, mean of runs
Activity calls are given as the source filed them.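 How the source made its calls: active means mean IC50 for reducing PEG3 promoter reporter signal at or below a set limit, with IC50 above the limit in both counter screens; inactive means the rest, including counter screen hits.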
Hello, when you answer, please use one of the following outcomes: True for active, False for inactive

Completed entries (count: 4):
C[C@@H](C(=O)Nc1ccc2c(c1)OCCO2)n1c(=O)[nH]c2ccccc2c1=O | False
COc1ccc(-c2cc(C(F)F)n3ncc(C(=O)n4ccnc4C)c3n2)cc1 | True
CC(C)(C)C(=O)Nc1ccc(NC(=O)c2ccco2)nc1 | True
C=CCn1c(COc2ccccc2)nnc1SC(C)C(=O)N/N=C/c1cc(Cl)ccc1O (stereo not given) | True

Could you now look at the following molecule, please?
Task: Please let me know the test result on file for COc1ccccc1NC(=O)c1cc(-c2cc(OC)c(OC)c(OC)c2)nc2ccccc12 .
Output: True

----------
Record form. Attribute: IC50. Fill in for each entry.
- Test system: PEG-3
- TEST DETAILS: Peg3 promoter luciferase inhibitors, potency, dose response, cell-based, HeLa, CREF/GAPDH counter-screen panel (AID 624167)
- RUN CONDITIONS: HeLa PEG-Prom luciferase reporter, overnight, CREF/GAPDH counter-screens, run 1, dose range 1, individual replicate IC50 per panel
Numbers only, in µM.

COC(=O)c1ccc(OCC2c3cc(OC)c(OC)cc3CCN2C(=O)c2ccco2)cc1 (stereo not drawn) | 25.2
COc1ccccc1NC(=S)NC1CCCCCCCCCCC1 | 31.2
CCOC(=O)C1CCN(c2cc3c(cc2NC(=O)c2ccccc2OCC)n(C)c(=O)n3C)CC1 | 35.7
COc1cccc(NC(=O)Nc2cccc(C(=O)O)c2)c1 | 15.1

Give IC50 for each of the items listed below.
1. Cc1ccc(S(=O)(=O)N(C)C)cc1NC(=O)c1cncc(Br)c1
2. Cc1ccc(C(=O)O/N=C(\N)c2ccccn2)cc1
3. O=S(=O)(N[C@H]1C[C@@H](NS(=O)(=O)OCC(Cl)(Cl)Cl)C2CCCCC21)OCC(Cl)(Cl)Cl (stereo partly drawn)
4. CC1(C)C(=O)C=CC(=O)C(C)(C)C(=O)C=CC(=O)C(C)(C)C2=CC=C(O2)C(C)(C)C(=O)C=CC1=O
5. COc1cc(NC(=O)c2c(F)c(F)c(F)c(F)c2F)c(OC)cc1Cl
6. CC(=O)Nc1cccc(NC(=O)c2cc(-c3cccnc3)nc3ccc(Cl)cc23)c1
7. COC(=O)C1=C(C(=O)OC)C(C(=O)OC)C(C(=O)OC)C(C(=O)OC)(C(=O)OC)C(C(=O)OC)=C1C(=O)OC (stereo not drawn)
8. CCn1cc(CN2CCC(C(=O)Nc3cccc(-c4cccc(Cl)c4)c3)CC2)cn1

Output:
[47.7, 10.3, 15.1, 16.6, 23.7, 50.2, 16.9, 19.3]

Give IC50 for each of the items listed below.
1. CCOC(=O)c1sc2nc(CSc3ccccc3)nc(N3CCCN(C)CC3)c2c1C
2. COc1ccc(-c2sc3ccccc3c2-c2ccc(OCCN3CCCCC3)cc2)cc1
3. CCCCCN1C=CC(=C2C(=O)c3ccccc3C2=O)C=C1
4. CCCn1c(C)cc(C(=O)CN2C(=O)c3ccccc3S2(=O)=O)c1C
5. OCC1OC(n2ccc3c(NO)ncnc32)C(O)C1O (stereo not drawn)

Output:
1. 19.4
2. 20.9
3. 1.08
4. 3.24
5. 0.433

Give IC50 for each of the items listed below.
1. CCOc1ccc(OCc2cccc(C(=O)O)c2)cc1
2. CNCC(O)c1cc(OCc2ccccc2)c(OCc2ccccc2)cc1F (stereo not drawn)
3. CCCCCCCn1c(=N)n(CC(=O)c2ccco2)c2ccccc21
4. CC(C(=O)NC1CCCC1)N(C(=O)Cn1nnc(-c2ccc(F)cc2)n1)c1ccccc1F (stereo not drawn)

Output:
0.232
20.8
0.395
22.9

Give IC50 for each of the items listed below.
1. CCCCCCCCCCCCCCC(O)C[N+](C)(CCO)CCO (stereo not drawn)
2. CCOc1ccc(Nc2c3ccccc3nc3ccccc23)cc1
3. CCCCC(=O)NC(c1ccccc1OC)c1ccc2cccnc2c1O (stereo not drawn)
4. COc1cc(-c2cc(C(=O)N(C)Cc3ccccc3)c3ccccc3n2)cc(OC)c1OC
5. COc1ccc(-c2oc3ccc(-c4cc(OC)c(OC)c(OC)c4)cc3c2C#Cc2ccccn2)cc1
6. O=C(Nc1cccc(S(=O)(=O)N2CCOCC2)c1)c1ccc2c(=O)n3c(nc2c1)CCCCC3
7. COc1cc(C(=O)N/N=C(\c2ccccc2)c2ccccn2)cc(OC)c1OC
8. Cc1ccc2[nH]c(=O)c(C3C(C#N)=C(N)Oc4c3ccc3cccnc43)cc2c1 (stereo not drawn)

Output:
[17.7, 21.9, 3.35, 69.3, 2.89, 25.3, 3.09, 28.3]

Give IC50 for each of the items listed below.
1. CN(C)c1ccc(NC(=S)c2ccccn2)cc1
2. CCN(CC)CCNc1cccc2sc3ccccc3c(=O)c12

Output:
[2.19, 18.3]

Give IC50 for each of the items listed below.
1. N/C(=N\OC(=O)c1ccccc1)C(Cc1ccccc1)C(=O)NOC(=O)c1ccccc1 (stereo not drawn)
2. Cc1ccc(OCC(=O)c2cc(C)n(Cc3ccco3)c2C)c([N+](=O)[O-])n1
3. COc1cc(C=NO)nc(-c2ccccn2)c1
4. CCCCCCC=C1CCC(CN2CCCC2)C1=O (stereo not drawn)
5. O=C(NC1CCCCC1)Sc1ccc(Cl)cc1
6. CN(C)c1ccc(C=c2c3ccccc3n3c2cc(-c2ccccc2)[n+]3C)cc1

Output:
1. 15
2. 6.5
3. 0.84
4. 35.6
5. 30.7
6. 7.06

Data origin, for the record: PubChem BioAssay AID624167
